Test system: OVCAR-3 ovarian
Test Description: NCI tumour cell line growth inhibition, 48 h; in the data active means GI50 below about 0.43 µM; inactive means the rest
Possible outcomes: yes (1) for active, no (0) for inactive

{"columns": ["Structure Smiles", "Qualitative Label"],
 "data": [
  ["O=c1c(Br)ccc(Br)cc1Br", "no (0)"],
  ["COc1cc2c(cc1OC)-c1c(c3ccc([N+](=O)[O-])cc3c(=O)n1CCCBr)C2=O", "no (0)"],
  ["CN(Cc1cccc(Cl)c1)c1ccc(CO)c(Cl)c1", "no (0)"],
  ["O=C1COCCN1c1ccc(NCc2cn(Cc3ccc(F)cc3)c3ccccc23)cc1", "yes (1)"],
  ["COc1cc(-c2nc3cc(Cl)c(Cl)cc3[nH]2)ccc1OCC(=O)N=Nc1c(O)[nH]c2ccccc12", "yes (1)"],
  ["COc1cccc(-c2nn(C)c3sc(C(=O)NCCN4CCN(c5ccccc5F)CC4)cc23)c1", "no (0)"],
  ["N=C(N)c1ccc(-c2ccc(-c3ccccc3)o2)o1", "no (0)"]
]}

Data origin, for the record: PubChem BioAssay (NCI)
